Tested on: XIP peptide (Xip251-270)
Experiment: compounds binding XIP fragment 251-270 – biochemical, small-molecule microarray, fluorescence 635/667 nm, 0.5 µg/mL protein, primary screen (AID 1183)
Conditions: fluorescence 635 nm, higher = more signal
Some molecules, each annotated with its measured composite z-score.
# output: bare number, no unit

The cases that follow already have their composite z-score on record.
MOLECULE	TARGET UNDER TEST	composite z-score
CCCC[C@@H](O)C1=C(COC)C[C@H]2C(=O)N(Cc3ccccc3)C(=O)[C@H]2[C@H]1CO	XIP peptide (Xip251-270)	0.782
CCCCCN1CC=CC23O[C@@H]4/C=C\CCC(C)OC(=O)C4[C@H]2C(=O)N(C(CO)C(C)C)[C@@H]3C1=O (stereo partly drawn)	XIP peptide (Xip251-270)	0.761
COCCOC(=O)N1C(=O)[C@@]2(c3cc(C#CCNC(N)=O)ccc31)[C@H](C(N)=O)[C@H]1C(=O)O[C@H](c3ccccc3)[C@H](c3ccccc3)N1[C@@H]2c1ccccc1OCCO	XIP peptide (Xip251-270)	0.485
C[N+](C)(C)CCCCCCNC(=O)[C@@H]1C[C@@H]2C(=O)N3CCC[C@H]3C(=O)N2[C@@H]1c1ccc(O)cc1	XIP peptide (Xip251-270)	0.723
CN1C(=O)C2C=CC(C(O)c3cccn3C)N(Nc3ccc([N+](=O)[O-])cc3[N+](=O)[O-])C2C1=O (stereo not drawn)	XIP peptide (Xip251-270)	-0.564
CCCCC(CC)C(O)C1C=CC2C(=O)N(c3ccccc3)C(=O)C2N1Nc1ccccc1F (stereo not drawn)	XIP peptide (Xip251-270)	0.0509

Query string: Supply composite z-score measured with XIP peptide (Xip251-270) for C=CCN1C(=O)[C@]2(CCS(=O)(=O)c3ccccc3)N=C(c3ccc(OCCCO)cc3)O[C@@H]2c2ccccc21 .
Result string: 0.804

Query string: Supply composite z-score measured with XIP peptide (Xip251-270) for C=C(/C(=C/C[C@H](OC(C)=O)c1ccc(CO)o1)c1cnc2ccccc2c1)C(C)C .
Result string: 0.769

====

Target: Torsin-1A-interacting protein 2 (Homo sapiens) (UniProt Q8NFQ8)
Sequence (Q8NFQ8 whole entry, looked up): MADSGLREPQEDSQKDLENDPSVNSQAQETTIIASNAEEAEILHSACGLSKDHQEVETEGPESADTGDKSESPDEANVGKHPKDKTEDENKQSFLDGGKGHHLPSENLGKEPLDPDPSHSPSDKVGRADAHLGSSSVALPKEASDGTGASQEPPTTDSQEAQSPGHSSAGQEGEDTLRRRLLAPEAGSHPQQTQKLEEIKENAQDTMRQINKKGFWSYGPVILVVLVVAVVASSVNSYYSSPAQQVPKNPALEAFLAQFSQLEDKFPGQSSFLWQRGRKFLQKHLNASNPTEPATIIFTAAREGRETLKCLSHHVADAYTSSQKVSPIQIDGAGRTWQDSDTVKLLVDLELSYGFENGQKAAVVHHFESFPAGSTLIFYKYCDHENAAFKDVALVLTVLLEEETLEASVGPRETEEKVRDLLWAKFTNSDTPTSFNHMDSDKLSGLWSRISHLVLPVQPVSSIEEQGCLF
Test: small molecules binding lysate-expressed LULL1 – cell lysate, human LULL1 lysate, 635/667 nm fluorescence, primary screen (AID 1092);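 note: probe is lysate of COS7 cells overexpressing human LULL1; score merges per-feature 667 nm fluorescence with signal-to-noise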
Settings: small-molecule microarray, hLULL1 lysate binding, 635 nm fluorescence; higher = more signal
Some compounds, each annotated with its measured composite z-score.
# output: bare number, no unit

Query string: Query composite z-score for CCOC(=O)C[C@H]1[C@H](OC(=O)Cc2ccc3c(c2)OCO3)[C@@H](NC(=O)c2ccc3ccccc3n2)c2cc(OCCCO)ccc2N1C(=O)c1ccccc1
Result string: 0.604

Query string: Query composite z-score for CC(CO)N1C(=O)[C@]2(C)C3C(=O)OCCC/C=C\[C@H]3OC23C=CCN(c2ccc(Cl)cc2)C(=O)[C@@H]13 (stereo partly drawn)
Result string: -1.08

Query string: Query composite z-score for COc1cc(NN2C(C(O)c3ccco3)C=CC3C(=O)N(C)C(=O)C32)cc(OC)c1OC (stereo not drawn)
Result string: 0.873

Query string: Query composite z-score for N#Cc1ccc(NN2C(C(O)c3ccc(Br)cc3)C=CC3C(=O)N(c4ccccc4)C(=O)C32)cc1 (stereo not drawn)
Result string: 2.99

====

Some compounds, each annotated with its measured z-score.
Assay: inhibition of PAO1 biofilm formation – strain PAO1, LB-PBS medium, absorbance 600 nm, primary screen (AID 1176)
Settings: P. aeruginosa PAO1 growth/biofilm, A600, 12 h; higher = more signal
Calls of active or inactive are those of the source. The rule behind the calls is not given here.

The cases that follow already have their z-score on record.
COMPOUND	z-score
C=CC[C@@]1(C(=O)NCCCOC)N=C(c2ccc(OCCCO)cc2)O[C@@H]1c1ccccc1	-0.375 (inactive)
C=CC[C@]1(C(=O)N2CCOCC2)COC(c2ccc(OCCCO)cc2)=N1	0.124 (inactive)
CCCCC(CC)C(O)C1C=CC2C(=O)N(c3ccccc3)C(=O)C2N1Nc1ccccc1F (centres undefined)	0.657 (inactive)

With those in mind, consider the next compound.
Query string: Query z-score for CC1=C2[C@@H](CCc3ccccc3)OB(O)C[C@@H]2[C@@H]2C(=O)N(C)C(=O)[C@@H]2C1
Result string: 0.212 (inactive)

====

Some compounds, each annotated with its measured composite z-score.
Biological target: Focal adhesion kinase 1 (Homo sapiens) (UniProt Q05397)
Sequence (Q05397 whole entry, looked up): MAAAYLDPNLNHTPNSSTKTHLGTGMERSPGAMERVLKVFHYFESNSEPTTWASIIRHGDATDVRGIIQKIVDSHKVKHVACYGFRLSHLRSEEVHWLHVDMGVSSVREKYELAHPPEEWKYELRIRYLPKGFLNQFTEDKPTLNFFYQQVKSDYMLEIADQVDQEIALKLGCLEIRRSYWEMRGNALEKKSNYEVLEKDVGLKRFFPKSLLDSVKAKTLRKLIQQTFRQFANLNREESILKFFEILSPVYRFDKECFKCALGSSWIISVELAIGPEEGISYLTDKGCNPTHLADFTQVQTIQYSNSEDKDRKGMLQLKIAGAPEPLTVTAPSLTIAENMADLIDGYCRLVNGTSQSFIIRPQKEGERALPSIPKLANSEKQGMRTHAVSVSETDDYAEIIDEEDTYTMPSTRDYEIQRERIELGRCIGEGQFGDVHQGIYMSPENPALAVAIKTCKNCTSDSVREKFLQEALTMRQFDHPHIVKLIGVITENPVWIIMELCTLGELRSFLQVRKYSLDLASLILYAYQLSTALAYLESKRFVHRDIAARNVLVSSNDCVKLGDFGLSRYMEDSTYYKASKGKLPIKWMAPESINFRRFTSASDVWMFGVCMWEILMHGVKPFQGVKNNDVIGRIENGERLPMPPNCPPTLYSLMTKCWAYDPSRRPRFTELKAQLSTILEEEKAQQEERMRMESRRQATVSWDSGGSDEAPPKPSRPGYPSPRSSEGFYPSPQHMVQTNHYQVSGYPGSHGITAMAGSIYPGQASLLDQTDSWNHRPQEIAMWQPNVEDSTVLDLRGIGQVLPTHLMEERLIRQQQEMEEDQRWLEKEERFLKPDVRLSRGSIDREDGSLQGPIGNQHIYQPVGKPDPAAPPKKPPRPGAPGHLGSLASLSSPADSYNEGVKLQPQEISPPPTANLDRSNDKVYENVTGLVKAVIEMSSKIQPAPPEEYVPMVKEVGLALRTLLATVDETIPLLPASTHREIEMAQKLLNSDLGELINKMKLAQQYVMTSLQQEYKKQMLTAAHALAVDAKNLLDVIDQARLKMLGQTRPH
Experiment: PTK2 protein binding on printed compound slides – biochemical, small-molecule microarray, 635/667 nm fluorescence, BSA, DTT, primary screen (AID 1130);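 note: composite of spot emission at 667 nm and signal to noise over triplicate slides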
Details: 635 nm fluorescence, higher = more signal
# output: bare number, no unit

COMPOUND	composite z-score
C=CCNC(=O)[C@@H]1[C@H]2C(=O)O[C@H](c3ccccc3)[C@H](c3ccccc3)N2[C@H](c2ccc(O)cc2)[C@@]12C(=O)N(C(=O)OCCOC)c1ccc(C#CC3=CCCCC3)cc12	0.664
O=C1C[C@]2(c3ccc([N+](=O)[O-])cc3)C(=O)N(C3CC3)c3cc(CO)ccc3[C@H]2N1CC12CC3CC(CC(C3)C1)C2	-0.421
O=C(C1N=C(c2ccc(OCCCO)cc2)N(c2ccccc2)O1)N1CCCCC1 (stereo unspecified)	0.634
COc1cccc(C)c1NC(=O)O[C@H]1[C@H](OC(=O)Nc2ccccc2-c2ccccc2)[C@H](OC(=O)Nc2ccccc2-c2ccccc2)[C@@H](OC)O[C@@H]1CO	0.588
COCCOC(=O)N1C(=O)[C@@]2(c3cc(C#CC4(O)CCCCCC4)ccc31)[C@H](c1ccc(O)cc1)N1[C@H](c3ccccc3)[C@H](c3ccccc3)OC(=O)[C@H]1[C@@H]2C(=O)N1CCN(c2ncccn2)CC1	0.839

With those in mind, consider the next compound.
Query string: Supply composite z-score measured with Focal adhesion kinase 1 (Homo sapiens) (UniProt Q05397) for CCOC(=O)C[C@H]1[C@H](OC(=O)Cc2ccc3c(c2)OCO3)[C@@H](NC(=O)C2CCCCC2)c2cc(OCCCO)ccc2N1C(=O)c1ccccc1 .
Result string: 0.408

====

Experiment: probe aLAP1 signal on lysate-treated microarray – cell lysate, small-molecule microarray, COS7 lysate, primary screen (AID 1124);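 note: lysate comes from COS7 cells expressing LAP1 and is applied at 0.3 µg/mL; score merges spot fluorescence near 667 nm with signal-to-noise over triplicate slides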
Conditions: probe aLAP1, fluorescence, higher = more signal
ASSAY METRIC: composite z-score
# output: bare number, no unit

The cases that follow already have their composite z-score on record.
COMPOUND	composite z-score
O=C(NCCN1CCOCC1)[C@@H]1c2ccccc2C(=O)N(C2Cc3ccccc3C2)[C@H]1c1ccc(CO)cc1	1.77
CC1CC/C=C\[C@H]2OC34C=CCN(Cc5ccccc5)C(=O)[C@H]3N(C(CO)C(C)C)C(=O)[C@@H]4C2C(=O)O1 (stereo partly specified)	0.219
COc1ccc(C#Cc2ccc3c(c2)[C@]2(C(=O)N3)[C@H](c3ccc(OCCO)cc3)N3[C@H](c4ccccc4)[C@H](c4ccccc4)OC(=O)[C@H]3[C@@H]2C(=O)NC[C@H](O)c2ccccc2)cc1	0.117
C=C(C(=O)CC[C@H](OC(=O)c1ccccc1-c1ccccc1C(=O)O)c1cccc(OCCO)c1)C(C)C	0.2
NC(=O)NCC#Cc1ccc2c(c1)[C@]1(C(=O)N2)[C@H](C(=O)N2CCN(c3ncccn3)CC2)[C@H]2C(=O)O[C@H](c3ccccc3)[C@H](c3ccccc3)N2[C@@H]1c1ccc(O)cc1	0.102

With those in mind, consider the next compound.
Query string: Query composite z-score for C=CCC(OC(C)=O)[C@@H]1[C@@H](N(Cc2cccc3ccccc23)C(=O)Cc2ccc(OC)cc2)c2cc(OCCCO)ccc2N1C(=O)c1ccc(-c2ccccc2)cc1 (stereo partly specified)
Result string: 0.181

====

Assay: probe aNOTCH3 binding on compound microarray – biochemical, small-molecule microarray, 635/667 nm fluorescence, primary screen (AID 1120);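 note: probe is a biotin-tagged antibody raised against NOTCH3 rather than NOTCH3 protein; score merges spot fluorescence near 667 nm with spot signal to noise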
Settings: higher = more signal
Some molecules, each annotated with its measured composite z-score.
# output: bare number, no unit

The cases that follow already have their composite z-score on record.
MOLECULE	composite z-score
CC(C)(C)OC(=O)COc1cccc(C(=O)CCN2CCOCC2)c1	-0.0119
CC(C)C(CO)N1C(=O)[C@@H]2C3C(=O)OCCC/C=C\[C@H]3OC23C=CCN(Cn2nnc4ccccc42)C(=O)[C@@H]13 (stereo partly specified)	-0.256
CC[C@@H]1O[Si](C(C)C)(C(C)C)c2c1cc(-c1cc(C)c(OC)c(C)c1)nc2-c1ccc(Oc2ccccc2)cc1	-0.0967
CC(=O)N1CC2(CC2)CC1c1ccccc1 (stereo unspecified)	0.77
CC(C)C(CO)N1C(=O)[C@@H]2[C@H]3C(=O)OCC=C[C@H]3OC23C=CCN(c2ccc(Cl)cc2)C(=O)[C@@H]13 (stereo partly specified)	-0.171

With those in mind, consider the next molecule.
Query string: Query composite z-score for C=CCC(OC(C)=O)[C@@H]1[C@@H](N(Cc2cccc3ccccc23)C(=O)Cc2ccc(OC)cc2)c2cc(OCCCO)ccc2N1C(=O)c1ccc(-c2ccccc2)cc1 (stereo partly specified)
Result string: -0.0647
